- Test system: A498 renal
- method: NCI-60 one-dose screen, 48 h (100 = growth as untreated, 0 = no growth, -100 = all killed)
- conditionsUsed: 10 µM unless noted
About 83,000 compounds went through this panel and 20% of them were active in at least one assay; those are over-represented in the sample as a whole. Active and inactive are the calls of the source. The calls were made as follows: active = growth percent below 10; inactive = the rest.
measuredParameter: growth

INSERT INTO results (structure, measuredparameter, reportedmeasurement) VALUES
  ('O=C(Cn1nnc2ccccc21)N/N=C/c1c[nH]c2ccccc12', 'growth', '60.4% (inactive)'),
  ('Nn1c(=O)c(=O)[nH]c2c(cnn2-c2ccccc2)c1=O', 'growth', '113% (inactive)'),
  ('COc1cc2c(cc1OCCCCN1CCN(C(=S)SCCC(C#N)(c3ccccc3)c3ccccc3)CC1)N=C[C@@H]1CCCN1C2=O', 'growth', '-95% (active)'),
  ('Cc1ccc(S(=O)(=O)Oc2ccc3sc4cccc(NCCN(C)C)c4c(=O)c3c2)cc1', 'growth', '-96% (active)'),
  ('C=C1C(=O)O[C@H]2[C@H]1CC/C(CNC(=O)c1c[nH]c3ccc(F)cc13)=C\CC[C@@]1(C)O[C@@H]21', 'growth', '15.4% (inactive)'),
  ('Cn1cc(-c2csc(-c3cn(CCCN4CCOCC4)c4ccccc34)n2)c2cccnc21', 'growth', '55.2% (inactive)'),
  ('O=C(Cc1ccccc1)Nc1cccc(N=Cc2ccccc2O)c1', 'growth', '115% (inactive)'),
  ('COc1ccc(Oc2nc(Nc3ccc(N4CCOCC4)cc3)ncc2NC(=O)Nc2cc(OC)cc(OC)c2)cc1', 'growth', '9.34% (active)'),
  ('C=C(C)[C@@H]1CC[C@]2(C)[C@H](CC=C3[C@@H]4CC(C)(C)CC[C@]4(CO)CC[C@]32C)[C@@]1(C)CCCN', 'growth', '80.5% (inactive)');
